# target or test system: Negative control (amino acid sequence shown in SEQ ID NO: 2 in CN106046152A)
# method: ELISA, negative control well, TG1 supernatant
parameter: ELISA (OD450)
Numbers only, in OD450.

For orientation, consider the following solved cases.
| binder | ELISA (OD450) |
| --- | --- |
| M047 (VHH) VHH: QVQLVETGGGSVQAGGSLRLSCAASGSIASIDAMGWYRQVPGKEWERELVATISSSNSDNKYYKDSVKGRFTISTNIAKNTWYLQMNNLKPEDTAMYYCAAEDYDTKDRFWGQGTQVTVSS | 0.018 |
| M132 (VHH) VHH: QVQLVESGGGLVQAGGSLSLSCVASGDAFSFDAMGWYRQFSGKVNERQLVVATSRDGRTAYGERVKGRFTASRDNSKNTLSLVMNNLQVEDTAIYYCAAGDDPKDYYWGQGTQVTVSS | 0.007 |
| M129 (VHH) VHH: QVQLVESGGGSAQAGGSLILSCVASANLFTIDALGWYRQAPGPKRELVAAISSGGNKYYADAVKGRFTISRDTLTKTMWLQMNNLKPEDTAMYYCAAEDYGLGQRSWGMGTQVTVSS | 0.007 |

Attention now turns to another entry.
Query block: # ELISA (OD450) lookup, item M224 (VHH) VHH: QVQLVESGGGLVQPGGSLRLSCAASGFTFHYYAIGWFRQAPGKEREGVSCISSSGDSTWFSDSVKGRFTVSRDNAKNIVHLQMNNLKPEDTAVYYCAGTTRSGYVCYDAEPYDSWGQGTQVTVSS
Result block: 0.0074

Values from patent US20240190986A1
